molecular target: Serine/threonine-protein kinase PAK 6 (Homo sapiens) (UniProt Q9NQU5); settings: at 1 µM;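 note: values are mean percent inhibition of PAK6 kinase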
Sequence (Q9NQU5 whole entry, looked up): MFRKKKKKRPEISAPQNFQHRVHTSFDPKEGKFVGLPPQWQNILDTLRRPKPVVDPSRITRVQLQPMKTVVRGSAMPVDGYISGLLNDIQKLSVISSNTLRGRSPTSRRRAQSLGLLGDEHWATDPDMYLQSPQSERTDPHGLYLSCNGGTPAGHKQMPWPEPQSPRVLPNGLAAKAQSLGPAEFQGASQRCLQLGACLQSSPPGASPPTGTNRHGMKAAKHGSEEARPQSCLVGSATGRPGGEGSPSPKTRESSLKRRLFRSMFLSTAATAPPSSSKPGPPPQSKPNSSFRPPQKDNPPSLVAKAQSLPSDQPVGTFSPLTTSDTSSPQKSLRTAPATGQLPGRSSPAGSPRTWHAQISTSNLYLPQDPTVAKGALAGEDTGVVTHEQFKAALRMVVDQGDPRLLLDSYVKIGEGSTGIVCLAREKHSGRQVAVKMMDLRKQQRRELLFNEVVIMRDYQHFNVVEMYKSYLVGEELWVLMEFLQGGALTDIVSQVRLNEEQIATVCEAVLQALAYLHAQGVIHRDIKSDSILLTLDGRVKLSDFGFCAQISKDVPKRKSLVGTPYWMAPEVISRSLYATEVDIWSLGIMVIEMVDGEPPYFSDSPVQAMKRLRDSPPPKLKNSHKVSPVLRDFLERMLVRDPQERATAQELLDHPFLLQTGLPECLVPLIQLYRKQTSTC
readout: inhibition

1. COc1cccc(-n2cnc3c(N/N=C/c4ccncc4)ncnc32)c1 = 3.44%
2. CCc1cccc(CC)c1/C=C/c1cncc(C(=O)NC)c1 = 11.5%
3. C/C(Nc1ccc(S(N)(=O)=O)cc1)=C1/C(=O)Nc2ccccc21 = 0.59%
4. CCc1ccc(Oc2nccc(-c3c(-c4ccc(F)cc4)ncn3C3CCNCC3)n2)cc1 = 2.92%

----------
target: Tyrosine-protein kinase Lyn (Homo sapiens) (UniProt P07948); conditions: at 1 µM;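 note: kinase tested as its LYN B splice variant, values given as mean percent inhibition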
Sequence (P07948 2-512 limits assumed): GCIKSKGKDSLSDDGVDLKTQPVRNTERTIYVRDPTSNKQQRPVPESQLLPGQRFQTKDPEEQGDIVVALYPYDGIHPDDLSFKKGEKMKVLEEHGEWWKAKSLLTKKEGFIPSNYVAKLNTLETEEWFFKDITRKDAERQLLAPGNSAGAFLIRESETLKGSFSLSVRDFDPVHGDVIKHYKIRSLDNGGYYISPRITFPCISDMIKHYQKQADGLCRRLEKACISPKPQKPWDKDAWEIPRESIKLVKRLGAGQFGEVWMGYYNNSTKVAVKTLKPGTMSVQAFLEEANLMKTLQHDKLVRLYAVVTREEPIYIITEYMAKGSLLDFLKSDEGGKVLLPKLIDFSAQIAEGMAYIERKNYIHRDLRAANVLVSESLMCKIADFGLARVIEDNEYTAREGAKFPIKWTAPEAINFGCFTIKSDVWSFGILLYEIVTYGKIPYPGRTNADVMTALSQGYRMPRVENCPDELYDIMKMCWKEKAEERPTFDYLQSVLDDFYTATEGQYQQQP
Description: GSK_PKIS: LYN B (splice variant) mean inhibition at 1 uM [Nanosyn]
readout: inhibition (%)

1) COC(=O)Nc1nc2ccc(Sc3ccc(NC(=O)Nc4cc(C(F)(F)F)ccc4F)cc3)cc2[nH]1 = 49.8
2) COc1cccc(-n2cnc3c(N/N=C/c4ccncc4)ncnc32)c1 = 41.6
3) NS(=O)(=O)c1ccc(N/N=C2\C(=O)Nc3ccc(C(=O)NCCCn4ccnc4)cc32)cc1 = 12.4
4) CCC(=O)Nc1ccc(C)c(-c2ccc(C(=O)NCC3CC3)cc2)c1 = 2.75
5) CCc1cccc(CC)c1/C=C/c1cncc(C(=O)NC)c1 = 4.91
6) O=C1Nc2ccc(I)cc2C1=Cc1cc(Br)c(O)c(Br)c1 = 4.55
7) CN(C)CCOc1ccc(-c2cc(-c3ccc4c(c3)CCC4=NO)c(-c3ccncc3)o2)cc1 = 3.2
8) COc1cc(Nc2ncc3c(C)nc(-c4cccc(C(F)(F)F)c4)n3n2)cc(OC)c1OC = 21.9
9) CS(=O)(=O)CCNCc1ccc(-c2ccc3ncnc(Nc4ccc(OCc5ccccc5)c(Br)c4)c3c2)o1 = 5.83
10) COc1cc2ncn(-c3cc(OCc4ccccc4C(F)(F)F)c(C(C)=O)s3)c2cc1OC = 6.9

----------
biological target: Mitogen-activated protein kinase 9 (Homo sapiens) (UniProt P45984); conditions: at 1 µM;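 note: reported figure is the mean inhibition of JNK2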
Sequence (P45984 whole entry, looked up): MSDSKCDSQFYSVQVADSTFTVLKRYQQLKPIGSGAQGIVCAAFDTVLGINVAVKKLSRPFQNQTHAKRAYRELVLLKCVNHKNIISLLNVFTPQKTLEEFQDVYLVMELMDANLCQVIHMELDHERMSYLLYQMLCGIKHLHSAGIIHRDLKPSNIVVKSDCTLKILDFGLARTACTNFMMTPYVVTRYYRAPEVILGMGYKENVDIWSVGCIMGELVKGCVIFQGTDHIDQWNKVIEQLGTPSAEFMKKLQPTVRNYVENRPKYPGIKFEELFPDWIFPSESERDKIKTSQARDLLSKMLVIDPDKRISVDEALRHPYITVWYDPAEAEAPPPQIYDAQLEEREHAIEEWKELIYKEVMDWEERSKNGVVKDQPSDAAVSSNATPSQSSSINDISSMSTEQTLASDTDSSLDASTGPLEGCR
Parameter: inhibition. Scope: all listed entries.
readout: inhibition (%)

1. COc1cc(Nc2ncc3c(C)nc(-c4cccc(Oc5ccccc5)c4)n3n2)cc(OC)c1OC = 4.03
2. O=C(Nc1n[nH]c2nc(-c3ccco3)ccc12)C1CC1 = 2.1
3. O=C1Nc2ccc(I)cc2C1=Cc1cc(Br)c(O)c(Br)c1 = 7.68
4. CCS(=O)(=O)c1ccc(OC)c(Nc2ncc(-c3cccc(-c4ccccc4F)c3)o2)c1 = 6.86
5. Cc1ccc(C(=O)NC(C)C)cc1-c1ccc(C(=O)NCC2CC2)cc1 = -0.22
6. COc1cccc(-n2cnc3c(N/N=C/c4ccncc4)ncnc32)c1 = -0.57

----------
Parameter: inhibition. Scope: all listed entries.
molecular target: Tyrosine-protein kinase TXK (Homo sapiens); conditions: at 0.1 µM;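 note: each listed value is a mean percent inhibition of TXK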
readout: inhibition (%)

1) CS(=O)(=O)CCNCc1ccc(-c2ccc3ncnc(Nc4ccc(OCc5ccccc5)c(Br)c4)c3c2)o1 = -5.68
2) NS(=O)(=O)c1ccc(Nc2cc(-c3ccc(O)c(F)c3)n[nH]2)cc1 = -1.15
3) COc1ccc(C2=C(N3CCc4ccccc43)C(=O)NC2=O)cc1 = 3.28
4) NS(=O)(=O)c1ccc(N/N=C2\C(=O)Nc3ccc(C(=O)NCCCn4ccnc4)cc32)cc1 = 3.46
5) Cc1nnc(-c2ccc(C)c(-c3ccc(C(=O)NCc4ccc(Cl)cc4)cc3)c2)o1 = -0.45

----------
biological target: cGMP-dependent protein kinase 2 (Homo sapiens) (UniProt Q13237); conditions: at 0.1 µM;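 note: reported figure is a mean inhibition value against PRKG2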
Sequence (Q13237 whole entry): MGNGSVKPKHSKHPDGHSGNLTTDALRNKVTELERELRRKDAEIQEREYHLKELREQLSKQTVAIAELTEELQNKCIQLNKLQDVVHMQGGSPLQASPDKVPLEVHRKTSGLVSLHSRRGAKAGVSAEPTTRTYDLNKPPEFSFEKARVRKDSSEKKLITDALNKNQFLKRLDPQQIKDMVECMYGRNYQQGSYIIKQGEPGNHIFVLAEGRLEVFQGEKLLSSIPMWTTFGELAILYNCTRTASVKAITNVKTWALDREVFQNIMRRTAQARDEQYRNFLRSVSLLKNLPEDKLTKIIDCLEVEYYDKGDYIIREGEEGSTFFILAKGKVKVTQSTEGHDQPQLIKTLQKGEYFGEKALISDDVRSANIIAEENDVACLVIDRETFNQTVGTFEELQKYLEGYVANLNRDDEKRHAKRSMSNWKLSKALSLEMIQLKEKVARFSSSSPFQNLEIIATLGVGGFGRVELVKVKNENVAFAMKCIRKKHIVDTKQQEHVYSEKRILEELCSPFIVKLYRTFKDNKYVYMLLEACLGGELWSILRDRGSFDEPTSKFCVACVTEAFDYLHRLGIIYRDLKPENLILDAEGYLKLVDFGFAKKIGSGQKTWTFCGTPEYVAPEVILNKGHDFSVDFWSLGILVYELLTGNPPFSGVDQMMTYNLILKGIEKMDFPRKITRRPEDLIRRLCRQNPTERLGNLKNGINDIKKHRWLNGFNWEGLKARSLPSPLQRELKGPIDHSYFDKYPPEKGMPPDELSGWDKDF
Parameter: inhibition. Scope: all listed entries.
readout: inhibition (%)

1) CS(=O)(=O)CCNCc1ccc(-c2ccc3ncnc(Nc4ccc(OCc5ccccc5)c(Br)c4)c3c2)o1 = 2.31
2) C/C(Nc1ccc(S(N)(=O)=O)cc1)=C1/C(=O)Nc2ccccc21 = 0.21
3) COc1cccc(/C=N/Nc2ncnc3c2cnn3-c2cccc(OC)c2)c1 = 1.19
4) CN(C)CCCNc1nccc(-c2c(-c3ccc(F)cc3)nn3cc(C(F)(F)F)ccc23)n1 = 1.88
5) CN(c1ccc(NC(=O)Nc2c(Cl)cccc2Cl)cc1)c1ccnc(Nc2cccc(CS(C)(=O)=O)c2)n1 = 1.9
6) NC(=O)c1cc(-c2ccc(F)cc2)cc(-c2ccncc2)c1N = 1.73
7) NS(=O)(=O)c1ccc(Nc2cc(-c3ccc(O)c(F)c3)n[nH]2)cc1 = -1.16
8) Clc1ccc(CNc2nccc(-c3cnn4ncccc34)n2)cc1 = -0.17
9) COc1cc(C)c(N(C)C(=O)CN(C)C)cc1Nc1nc(Nc2cccc(F)c2C(N)=O)c2cc[nH]c2n1 = 2.1
10) Fc1ccc(-c2ncn(C3CCNCC3)c2-c2ccnc(Oc3ccc(F)c(F)c3)n2)cc1 = 0.9
11) COc1cccc(-n2cnc3c(N/N=C/c4ccncc4)ncnc32)c1 = 3.29
12) C[C@@H](Oc1cc(-n2cnc3ccc(OC4CCN(C)CC4)cc32)sc1C(N)=O)c1ccccc1Cl = 1.43
13) COc1cc(Nc2ncc3c(C)nc(-c4cccc(C(F)(F)F)c4)n3n2)cc(OC)c1OC = 4.61
14) O=C(Nc1n[nH]c2nc(-c3ccco3)ccc12)C1CC1 = 0.68
15) c1ccc(-c2n[nH]cc2-c2ccnc(-c3ccc(OCCN4CCOCC4)cc3)c2)nc1 = 4.17
16) CN(C)CCOc1ccc(-c2cc(-c3ccc4c(c3)CCC4=NO)c(-c3ccncc3)o2)cc1 = -0.1
17) C[C@@H](Oc1cc(-n2cnc3ccc(OCC4CCN(C)CC4)cc32)sc1C(N)=O)c1ccccc1Cl = 3.5
18) O=C(NCC1CC1)c1ccc(-c2cccc(C(=O)NC3CC3)c2)cc1 = 1.23
19) Fc1ccc(-c2ncn(CCCN3CCOCC3)c2-c2ccncc2)cc1 = 0.94
20) O=C1Nc2ccccc2/C1=C/Nc1ccc(-n2cncn2)cc1 = 2.51
21) CN1CCN(CCCNc2nc3ccc(Oc4ccc(NC(=O)Nc5cc(C(F)(F)F)ccc5F)cc4)cc3[nH]2)CC1 = 3.62
22) COc1ccc2ncn(-c3cc(O[C@H](C)c4ccccc4Cl)c(C(N)=O)s3)c2c1 = 3.48
23) O=C1Nc2ccc(I)cc2C1=Cc1cc(Br)c(O)c(Br)c1 = 2.47
24) CCc1nccc2c1nc(-c1nonc1N)n2CC = 2.5
25) Nc1nccc(-c2c(-c3ccc(F)cc3)ncn2C2CCC(O)CC2)n1 (centres undefined) = -0.66
26) COC(=O)Nc1nc2ccc(Sc3ccc(NC(=O)Nc4cc(C(F)(F)F)ccc4F)cc3)cc2[nH]1 = -0.08
27) CCC(=O)Nc1ccc(C)c(-c2ccc(C(=O)NCC3CC3)cc2)c1 = 1.03
28) Fc1ccc(-c2c(-c3ccncc3)nc3n2CCS3)cc1 = 2.62
29) COc1ccc2cc(-c3c(-c4ccncc4)nc(-c4ccc([S+](C)[O-])cc4C)n3C)ccc2c1 (centres undefined) = 0.02
30) COc1ccc(-c2ccc3c(NC(=O)C4CC4)n[nH]c3n2)cc1 = 0.63
31) O=C(Nc1n[nH]c2cc(-c3ccccc3)ccc12)C1CC1 = 1.66
32) NCc1ccc(-n2c(-c3nonc3N)nc3cnccc32)cc1 = 16
33) Fc1ccc(-c2nc3n(c2-c2ccncc2)CCS3)cc1 = 2.32
34) COc1cc2ncn(-c3cc(OCCc4ccccc4)c(C(N)=O)s3)c2cc1OC = 1.3
35) COc1cc(Nc2ncc3c(C)nc(-c4cccc(Oc5ccccc5)c4)n3n2)cc(OC)c1OC = 1.18
36) C#Cc1cccc(Nc2ncnc3ccc(OCCCCNCCS(C)(=O)=O)cc23)c1 = 2.75
37) COc1cc2ncn(-c3cc(OCc4cccs4)c(C(N)=O)s3)c2cc1OC = 3.73
38) Cc1ccc(C(=O)NC(C)C)cc1-c1ccc(C(=O)NCC2CC2)cc1 = -1.45
39) NS(=O)(=O)c1ccc(N/N=C2\C(=O)Nc3ccc(C(=O)NCCCn4ccnc4)cc32)cc1 = 4.37

----------
target: Tyrosine-protein kinase JAK1 (Homo sapiens) (UniProt P23458); conditions: at 0.1 µM
Sequence (P23458 whole entry): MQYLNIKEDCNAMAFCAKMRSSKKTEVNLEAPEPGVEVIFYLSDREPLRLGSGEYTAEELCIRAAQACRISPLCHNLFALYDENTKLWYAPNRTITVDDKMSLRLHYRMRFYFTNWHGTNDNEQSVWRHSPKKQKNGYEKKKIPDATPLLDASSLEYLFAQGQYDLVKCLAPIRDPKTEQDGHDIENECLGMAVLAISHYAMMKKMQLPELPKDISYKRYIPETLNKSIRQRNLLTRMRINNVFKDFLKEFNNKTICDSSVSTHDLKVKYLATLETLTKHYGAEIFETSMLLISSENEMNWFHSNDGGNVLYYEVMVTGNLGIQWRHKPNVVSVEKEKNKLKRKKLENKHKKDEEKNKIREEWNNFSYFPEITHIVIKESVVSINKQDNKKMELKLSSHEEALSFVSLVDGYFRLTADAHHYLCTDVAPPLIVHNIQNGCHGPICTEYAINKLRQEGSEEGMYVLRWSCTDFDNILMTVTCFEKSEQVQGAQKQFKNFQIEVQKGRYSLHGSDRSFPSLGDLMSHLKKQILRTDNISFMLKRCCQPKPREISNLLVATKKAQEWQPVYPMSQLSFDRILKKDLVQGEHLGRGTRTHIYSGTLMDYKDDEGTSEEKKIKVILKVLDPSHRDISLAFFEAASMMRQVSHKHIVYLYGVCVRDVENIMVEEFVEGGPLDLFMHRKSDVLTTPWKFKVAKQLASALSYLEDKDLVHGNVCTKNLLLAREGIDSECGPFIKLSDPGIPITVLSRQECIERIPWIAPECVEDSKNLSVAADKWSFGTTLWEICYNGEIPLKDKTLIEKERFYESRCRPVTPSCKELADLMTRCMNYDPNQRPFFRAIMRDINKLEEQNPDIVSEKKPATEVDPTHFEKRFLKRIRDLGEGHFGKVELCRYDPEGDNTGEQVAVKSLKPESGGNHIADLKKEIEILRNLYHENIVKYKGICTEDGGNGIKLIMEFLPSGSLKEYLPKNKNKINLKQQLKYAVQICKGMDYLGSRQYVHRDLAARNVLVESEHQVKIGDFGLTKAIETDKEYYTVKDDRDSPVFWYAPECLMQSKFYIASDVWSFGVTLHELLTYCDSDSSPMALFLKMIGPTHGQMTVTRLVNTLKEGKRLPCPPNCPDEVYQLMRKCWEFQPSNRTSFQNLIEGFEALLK
Description: GSK_PKIS: JAK1 mean inhibition at 0.1 uM [Nanosyn]
readout: inhibition (%)

1) O=C(Nc1n[nH]c2nc(-c3ccco3)ccc12)C1CC1 = -0.37
2) NS(=O)(=O)c1ccc(N/N=C2\C(=O)Nc3ccc(-c4cnco4)cc32)cc1 = 1.96
3) CN(C)CCCNc1nccc(-c2c(-c3ccc(F)cc3)nn3cc(C(F)(F)F)ccc23)n1 = 0.29
4) CCc1cccc(CC)c1/C=C/c1cncc(C(=O)NC)c1 = 2.03
5) COc1ccc(-c2ccc3c(NC(=O)C4CC4)n[nH]c3n2)cc1 = 2.09
6) CNC(=O)c1cncc(/C=C/c2c(C)cccc2C)c1 = 0.62

----------
target: cAMP-dependent protein kinase catalytic subunit alpha (Homo sapiens) (UniProt P17612); details: at 1 µM;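 note: mean percent inhibition of PKA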
Parameter: inhibition. Scope: all listed entries.
readout: inhibition (%)

1) COC(=O)Nc1nc2ccc(Sc3ccc(NC(=O)Nc4cc(C(F)(F)F)ccc4F)cc3)cc2[nH]1 = 2.01
2) CN(C)c1ccc2c(c1)/C(=C/Nc1ccc(S(N)(=O)=O)cc1)C(=O)N2 = 1.6
3) NS(=O)(=O)c1ccc(Nc2cc(-c3ccc(O)c(F)c3)n[nH]2)cc1 = -0.83
4) COc1cc(N2CCN(C(C)C)CC2)ccc1Nc1nc(Nc2ccc(F)cc2C(=O)NC[C@@H](O)CO)c2cc[nH]c2n1 = 0.73
5) COc1ccc2cc(-c3c(-c4ccncc4)nc(-c4ccc([S+](C)[O-])cc4C)n3C)ccc2c1 (centres undefined) = 21.8
6) O=C1Nc2ccc(I)cc2C1=Cc1cc(Br)c(O)c(Br)c1 = 2.5
7) Fc1ccc(-c2ncn(C3CCNCC3)c2-c2ccnc(Oc3ccc(F)c(F)c3)n2)cc1 = 9.25
8) CCc1ccc(Oc2nccc(-c3c(-c4ccc(F)cc4)ncn3C3CCNCC3)n2)cc1 = 75
9) Fc1ccc(-c2c(-c3ccncc3)nc3n2CCS3)cc1 = 13.2
